Each entry below lists one item and its recorded Binding Signal value.
Target: T1, human TREM2 (human, UniProt Q9NZC2 19-174, limits assumed)
T1 construct: also called triggering receptor expressed on myeloid cells 2
T1 sequence: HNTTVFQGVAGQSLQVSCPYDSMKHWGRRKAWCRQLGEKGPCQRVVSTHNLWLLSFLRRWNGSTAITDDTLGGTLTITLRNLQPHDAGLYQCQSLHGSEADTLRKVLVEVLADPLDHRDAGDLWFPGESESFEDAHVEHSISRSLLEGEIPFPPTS
Test description: 1st screen, 110 nM Ab

| Binder | Binding Signal |
| --- | --- |
| V93 (antibody, V domains shown, also called 6E7 variant V93) VH: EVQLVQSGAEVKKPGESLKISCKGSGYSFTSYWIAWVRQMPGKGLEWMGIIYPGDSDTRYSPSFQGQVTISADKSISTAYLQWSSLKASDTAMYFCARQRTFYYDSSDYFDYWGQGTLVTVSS VL: DIQMTQSPSSVSASVGDRVTITCRASQGISGWLAWYQQKPGKAPKLLIYAASSLQNGVPSRFSGSGSGTDFTLTISSLQPEDFATYFCQQADSFPRTFGQGTKLEIK | 0.35 fold over 6E7 parental antibody |
| V45 (antibody, V domains shown, also called 6E7 variant V45) VH: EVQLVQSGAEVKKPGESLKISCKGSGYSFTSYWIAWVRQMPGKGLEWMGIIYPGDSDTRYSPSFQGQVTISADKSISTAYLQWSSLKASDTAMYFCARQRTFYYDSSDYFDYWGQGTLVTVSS VL: DIQMTQSPSSVSASVGDRVTITCRASQGISSFLAWYQQKPGKAPKLLIYAASSLQNGVPSRFSGSGSGTDFTLTISSLQPEDFATYFCQQADSFPRTFGQGTKLEIK | 0.43 fold over 6E7 parental antibody |
| V66 (antibody, V domains shown, also called 6E7 variant V66) VH: EVQLVQSGAEVKKPGESLKISCKGSGTSFTSYWIAWVRQMPGKGLEWMGIIYPGDSDTRYSPSFQGQVTISADKSISTAYLQWSSLKASDTAMYFCARQRTFYYDSSDYFDYWGQGTLVTVSS VL: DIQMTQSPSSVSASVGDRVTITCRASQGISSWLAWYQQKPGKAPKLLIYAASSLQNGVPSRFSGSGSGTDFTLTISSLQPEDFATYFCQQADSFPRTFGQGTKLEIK | 0.25 fold over 6E7 parental antibody |
| V33 (antibody, V domains shown, also called 6E7 variant V33; LV-16/HV-203) VH: EVQLVQSGAEVKKPGESLKISCKGSGYSFTSYWIAWVRQMPGKGLEWMGIIYPGDSDTRYSPSFQGQVTISADKSISTAYLQWSSLKASDTAMYFCARQRTFYGDSSDYFDYWGQGTLVTVSS VL: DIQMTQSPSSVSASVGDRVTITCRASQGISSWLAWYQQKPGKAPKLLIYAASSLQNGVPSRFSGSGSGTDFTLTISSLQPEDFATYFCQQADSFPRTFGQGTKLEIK | 0.23 fold over 6E7 parental antibody |
| V22 (antibody, V domains shown, also called 6E7 variant V22) VH: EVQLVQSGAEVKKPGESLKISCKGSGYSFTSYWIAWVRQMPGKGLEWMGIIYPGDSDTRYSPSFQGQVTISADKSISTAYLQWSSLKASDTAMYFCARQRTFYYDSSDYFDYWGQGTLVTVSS VL: DIQMTQSPSSVSASVGDRVTITCRASQGISSWLAWYQQKPGKAPKLLIYRASSLQNGVPSRFSGSGSGTDFTLTISSLQPEDFATYFCQQADSFPRTFGQGTKLEIK | 0.3 fold over 6E7 parental antibody |
| V34 (antibody, V domains shown, also called 6E7 variant V34) VH: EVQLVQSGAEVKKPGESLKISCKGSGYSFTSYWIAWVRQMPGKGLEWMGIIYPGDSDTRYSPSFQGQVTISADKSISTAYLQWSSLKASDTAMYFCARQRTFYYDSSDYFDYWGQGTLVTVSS VL: DIQMTQSPSSVSASVGDRVTITCRASQGISSWLAWYQQKPGKAPKLLIYAASSLQDGVPSRFSGSGSGTDFTLTISSLQPEDFATYFCQQADSFPRTFGQGTKLEIK | 0.34 fold over 6E7 parental antibody |
| V55 (antibody, V domains shown, also called 6E7 variant V55) VH: EVQLVQSGAEVKKPGESLKISCKGSGYSFTSYWIAWVRQMPGKGLEWMGIIYPGDSDTIYSPSHQGQVTISADKSISTAYLQWSSLKASDTAMYFCARQRTFYYDSSDYFDYWGQGTLVTVSS VL: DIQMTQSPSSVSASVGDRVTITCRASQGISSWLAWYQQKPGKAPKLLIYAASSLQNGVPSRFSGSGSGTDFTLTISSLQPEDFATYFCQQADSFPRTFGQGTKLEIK | 0.24 fold over 6E7 parental antibody |
| V90 (antibody, V domains shown, also called 6E7 variant V90; LV-206/HV-206) VH: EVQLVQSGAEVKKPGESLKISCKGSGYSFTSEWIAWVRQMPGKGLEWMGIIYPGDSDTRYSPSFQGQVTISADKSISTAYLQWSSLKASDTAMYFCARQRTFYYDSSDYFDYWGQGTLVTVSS VL: DIQMTQSPSSVSASVGDRVTITCRASQGISRWLAWYQQKPGKAPKLLIYAASSLQNGVPSRFSGSGSGTDFTLTISSLQPEDFATYFCQQADSFPRTFGQGTKLEIK | 0.33 fold over 6E7 parental antibody |
| V57 (antibody, V domains shown, also called 6E7 variant V57; LV-203/HV-15) VH: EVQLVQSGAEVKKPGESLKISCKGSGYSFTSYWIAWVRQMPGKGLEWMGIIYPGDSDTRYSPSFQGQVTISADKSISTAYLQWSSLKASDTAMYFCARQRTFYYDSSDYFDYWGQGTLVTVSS VL: DIQMTQSPSSVSASVGDRVTITCAASQGISSWLAWYQQKPGKAPKLLIYAASSLQNGVPSRFSGSGSGTDFTLTISSLQPEDFATYFCQQADSFPRTFGQGTKLEIK | 0.84 fold over 6E7 parental antibody |
| V59 (antibody, V domains shown, also called 6E7 variant V59) VH: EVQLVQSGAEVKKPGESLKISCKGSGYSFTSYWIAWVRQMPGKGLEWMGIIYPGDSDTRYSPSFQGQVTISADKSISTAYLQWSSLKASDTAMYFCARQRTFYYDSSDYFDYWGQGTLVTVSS VL: DIQMTQSPSSVSASVGDRVTITCRASQGISSWLAWYQQKPGKAPKLLIYAASSLQNGVPSRFSGSGSGTDFTLTISSLQPEDFATYFCMQADSFPRTFGQGTKLEIK | 0.19 fold over 6E7 parental antibody |
| V30 (antibody, V domains shown, also called 6E7 variant V30; LV-16/HV-202) VH: EVQLVQSGAEVKKPGESLKISCKGSGSSFTSYWIAWVRQMPGKGLEWMGIIYPGDSDTRYSPSFQGQVTISADKSISTAYLQWSSLKASDTAMYFCARQRTFYYDSSDYFDYWGQGTLVTVSS VL: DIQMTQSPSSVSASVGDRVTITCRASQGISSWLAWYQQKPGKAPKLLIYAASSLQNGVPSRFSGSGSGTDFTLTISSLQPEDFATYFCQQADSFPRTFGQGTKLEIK | 0.79 fold over 6E7 parental antibody |

The reported measurements were obtained from patent US20250326839A1.
